test system: HCC1569; assay: cell number relative to DMSO (% of DMSO); higher = more cells (less growth inhibition / toxicity); conditions: concentration: 10 µM; 24 h;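 also: TDF denotes transformed human dermal fibroblasts of mesenchymal origin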
Property name: cell number
Give your answer as a number; write no unit.

{"Molecule": "O=C(O)COc1ccc(C(=O)c2cccs2)c(Cl)c1Cl [[2,3-dichloro-4-(2-thienylcarbonyl)phenoxy]acetic acid]", "cell number": 106}
{"Molecule": "CC(C)(C)NCC(O)c1ccc(O)c(CO)c1 (stereo not drawn)", "cell number": 99.7}
{"Molecule": "Cl.Cn1c(=O)c(Oc2ccc(F)cc2F)cc2cnc(NC3CCOCC3)nc21", "cell number": 99.9}
{"Molecule": "CNC(=O)C1OC(n2cnc3c(N)ncnc32)C(O)C1O (stereo not drawn)", "cell number": 110}
{"Molecule": "COc1c(O)cc2oc(-c3ccc(O)cc3)cc(=O)c2c1O [5,7-dihydroxy-2-(4-hydroxyphenyl)-6-methoxy-4H-chromen-4-one]", "cell number": 92.6}

Need cell number, item NC(N)=Nc1nc(CSCCC(N)=NS(N)(=O)=O)cs1
103

Need cell number, item Nc1ccc(C(=O)Nc2cccc(-c3nc(N4CCOCC4)c4oc5ncccc5c4n3)c2)cn1
63.9

Need cell number, item O=c1[nH]c2cc(C(F)(F)F)ccc2n1-c1cc(C(F)(F)F)ccc1O
101
